Source of measurements: paper PMC3224213

System: S. aureus
Test: ATP leakage bioluminescence assay
Assay type: cell-based, Staphylococcus aureus
Details: 1000 μg/mL chimera

>  <Compound>
CC(=O)N[C@@H](CCCCN)C(=O)N(CCC(=O)N[C@@H](CCCCN)C(=O)N(CCC(=O)N[C@@H](CCCCN)C(=O)N(CCC(=O)N[C@@H](CCCCN)C(=O)N(CCC(=O)N[C@@H](CCCCN)C(=O)N(CCC(=O)N[C@@H](CCCCN)C(=O)N(CCC(=O)N[C@@H](CCCCN)C(=O)N(CCC(=O)N[C@@H](CCCCN)C(=O)N(CCC(N)=O)[C@@H](C)c1ccccc1)[C@@H](C)c1ccccc1)[C@@H](C)c1ccccc1)[C@@H](C)c1ccccc1)[C@@H](C)c1ccccc1)[C@@H](C)c1ccccc1)[C@@H](C)c1ccccc1)[C@@H](C)c1ccccc1 [Chimera 3]

>  <ATP leakage (in words)>
caused leakage of ATP

$$$$
>  <Compound>
CC(=O)N[C@@H](CCCCNC(=N)N)C(=O)N(CCC(=O)N[C@@H](CCCCNC(=N)N)C(=O)N(CCC(=O)N[C@@H](CCCCNC(=N)N)C(=O)N(CCC(=O)N[C@@H](CCCCNC(=N)N)C(=O)N(CCC(=O)N[C@@H](CCCCNC(=N)N)C(=O)N(CCC(=O)N[C@@H](CCCCNC(=N)N)C(=O)N(CCC(N)=O)Cc1ccccc1)Cc1ccccc1)Cc1ccccc1)Cc1ccccc1)Cc1ccccc1)Cc1ccccc1 [Chimera 1]

>  <ATP leakage (in words)>
caused leakage of ATP

$$$$
>  <Compound>
CC(=O)N[C@@H](CCCCNC(=N)N)C(=O)N(CCC(=O)N[C@@H](CCCCNC(=N)N)C(=O)N(CCC(=O)N[C@@H](CCCCNC(=N)N)C(=O)N(CCC(=O)N[C@@H](CCCCNC(=N)N)C(=O)N(CCC(=O)N[C@@H](CCCCNC(=N)N)C(=O)N(CCC(=O)N[C@@H](CCCCNC(=N)N)C(=O)N(CCC(N)=O)[C@@H](C)c1ccccc1)[C@@H](C)c1ccccc1)[C@@H](C)c1ccccc1)[C@@H](C)c1ccccc1)[C@@H](C)c1ccccc1)[C@@H](C)c1ccccc1 [Chimera 2]

>  <ATP leakage (in words)>
caused leakage of ATP

$$$$
